Examples of compounds with documented IC50 follow.
molecular target: Non-receptor tyrosine-protein kinase TYK2 (Homo sapiens); assay type: cell-based, Sf9
Give the quantity in µM, number only.

cpd.smiles	measurement.units	IC50
O=c1cc(-c2ccccc2)nc2c(-c3cccc([N+](=O)[O-])c3)c(C(F)(F)F)[nH]n12	µM	9.7

Please examine the following record next.
Query: Please give measured IC50 of the following entry: `CNC(=O)c1cnc(Nc2ccc(C#N)cn2)cc1Nc1cccc(-c2ncn(C)n2)c1OC`
Reply: 0.0003

----------
biological target: Non-receptor tyrosine-protein kinase TYK2 (Homo sapiens); test: Inhibition of TYK2 signalling pathway in human PBMC cells assessed as IFN alpha induced p-STAT1 level; type: cell-based
assay.endpoint: pIC50
The value called pIC50 is obtained by taking minus log10 of the concentration in mol/L.

Query: Please look at `CS(=O)(=O)N1CC[C@H](C#CC(=O)N2CCC[C@@H](c3ccc(Cl)c(Cl)c3)C2)C1` and tell me its recorded pIC50 on Non-receptor tyrosine-protein kinase TYK2 (Homo sapiens).
Reply: 7.49

----------
molecular target: Non-receptor tyrosine-protein kinase TYK2 (Homo sapiens, UniProt P29597); assay: Inhibition of TYK2 JH2 in human KIT225 cells assessed as reduction of IFNalpha induced STAT1 phosphorylation by AlphaLISA assay; format: cell-based
Sequence (P29597 whole entry): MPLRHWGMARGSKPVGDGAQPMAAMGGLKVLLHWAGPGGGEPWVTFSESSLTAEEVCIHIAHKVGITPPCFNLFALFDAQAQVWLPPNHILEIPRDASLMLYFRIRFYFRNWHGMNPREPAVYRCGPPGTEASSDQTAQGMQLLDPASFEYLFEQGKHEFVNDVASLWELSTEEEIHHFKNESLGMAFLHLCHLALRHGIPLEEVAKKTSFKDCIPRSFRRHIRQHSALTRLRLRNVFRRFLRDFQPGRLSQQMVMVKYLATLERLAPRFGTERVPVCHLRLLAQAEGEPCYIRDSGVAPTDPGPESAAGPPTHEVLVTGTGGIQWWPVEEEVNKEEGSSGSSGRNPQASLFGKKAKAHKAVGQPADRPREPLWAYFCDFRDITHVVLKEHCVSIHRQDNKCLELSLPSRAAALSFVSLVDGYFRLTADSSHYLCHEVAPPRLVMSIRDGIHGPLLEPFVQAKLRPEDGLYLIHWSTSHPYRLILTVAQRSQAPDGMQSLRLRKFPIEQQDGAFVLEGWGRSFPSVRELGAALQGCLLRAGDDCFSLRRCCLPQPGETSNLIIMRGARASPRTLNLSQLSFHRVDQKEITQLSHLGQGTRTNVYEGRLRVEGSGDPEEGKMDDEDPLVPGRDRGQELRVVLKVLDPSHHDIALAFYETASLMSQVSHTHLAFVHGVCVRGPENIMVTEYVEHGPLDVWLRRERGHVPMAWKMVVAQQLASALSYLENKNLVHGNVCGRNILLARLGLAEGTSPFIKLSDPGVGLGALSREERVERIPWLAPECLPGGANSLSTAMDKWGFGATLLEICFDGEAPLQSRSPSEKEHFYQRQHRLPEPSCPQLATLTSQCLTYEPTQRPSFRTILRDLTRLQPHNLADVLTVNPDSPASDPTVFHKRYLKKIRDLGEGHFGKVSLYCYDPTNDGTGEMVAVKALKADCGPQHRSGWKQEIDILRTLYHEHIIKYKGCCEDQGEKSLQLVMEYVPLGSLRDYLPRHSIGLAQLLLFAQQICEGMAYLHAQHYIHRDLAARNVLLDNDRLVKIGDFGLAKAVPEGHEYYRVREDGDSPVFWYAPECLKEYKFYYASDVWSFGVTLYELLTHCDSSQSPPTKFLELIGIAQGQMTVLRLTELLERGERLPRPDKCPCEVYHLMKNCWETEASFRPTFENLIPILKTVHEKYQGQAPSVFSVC
assay.endpoint: pIC50
Keep in mind that pIC50 stands for -log10 of concentration in molar terms.

cpd.smiles	experimental.value
CNC(=O)c1cnc(Nc2ccc(F)cn2)cc1Nc1ccccc1S(C)(=O)=O	7.20

Now turn to the next compound.
Query: State, in one line, measured pIC50 of `NC(=O)c1ccccc1Nc1cc(Nc2ccc(F)cn2)ncc1C(N)=O`
Reply: 7.43

----------
target: Non-receptor tyrosine-protein kinase TYK2 (Homo sapiens); format: cell-based, Sf9
assay.endpoint: IC50 (µM)
A number alone suffices; assume µM.

Query: For the compound `O=c1cc(-c2ccccc2)nc2c(-c3cccc([N+](=O)[O-])c3)c(C(F)(F)F)[nH]n12` , give its reported IC50.
Reply: 50

----------
assay: Half life in human liver microsomes; format: ADME, Microsome
assay.endpoint: half-life

cpd.smiles	assay.endpoint	experimental.value
[2H]C([2H])([2H])NC(=O)c1nnc(NC(=O)C2CC2)cc1Nc1cccc(-c2ncn(C)n2)c1OC	half-life	> 2 h

Moving on to the next compound.
Query: Give the value of half-life reported for the following: `CNC(=O)c1nnc(NC(=O)C2CC2)c2[nH]c(-c3ccc(N)cc3OC)cc12`
Reply: > 2.32 h

----------
target: Voltage-gated inwardly rectifying potassium channel KCNH2 (Homo sapiens, UniProt Q12809)
Sequence (Q12809 whole entry): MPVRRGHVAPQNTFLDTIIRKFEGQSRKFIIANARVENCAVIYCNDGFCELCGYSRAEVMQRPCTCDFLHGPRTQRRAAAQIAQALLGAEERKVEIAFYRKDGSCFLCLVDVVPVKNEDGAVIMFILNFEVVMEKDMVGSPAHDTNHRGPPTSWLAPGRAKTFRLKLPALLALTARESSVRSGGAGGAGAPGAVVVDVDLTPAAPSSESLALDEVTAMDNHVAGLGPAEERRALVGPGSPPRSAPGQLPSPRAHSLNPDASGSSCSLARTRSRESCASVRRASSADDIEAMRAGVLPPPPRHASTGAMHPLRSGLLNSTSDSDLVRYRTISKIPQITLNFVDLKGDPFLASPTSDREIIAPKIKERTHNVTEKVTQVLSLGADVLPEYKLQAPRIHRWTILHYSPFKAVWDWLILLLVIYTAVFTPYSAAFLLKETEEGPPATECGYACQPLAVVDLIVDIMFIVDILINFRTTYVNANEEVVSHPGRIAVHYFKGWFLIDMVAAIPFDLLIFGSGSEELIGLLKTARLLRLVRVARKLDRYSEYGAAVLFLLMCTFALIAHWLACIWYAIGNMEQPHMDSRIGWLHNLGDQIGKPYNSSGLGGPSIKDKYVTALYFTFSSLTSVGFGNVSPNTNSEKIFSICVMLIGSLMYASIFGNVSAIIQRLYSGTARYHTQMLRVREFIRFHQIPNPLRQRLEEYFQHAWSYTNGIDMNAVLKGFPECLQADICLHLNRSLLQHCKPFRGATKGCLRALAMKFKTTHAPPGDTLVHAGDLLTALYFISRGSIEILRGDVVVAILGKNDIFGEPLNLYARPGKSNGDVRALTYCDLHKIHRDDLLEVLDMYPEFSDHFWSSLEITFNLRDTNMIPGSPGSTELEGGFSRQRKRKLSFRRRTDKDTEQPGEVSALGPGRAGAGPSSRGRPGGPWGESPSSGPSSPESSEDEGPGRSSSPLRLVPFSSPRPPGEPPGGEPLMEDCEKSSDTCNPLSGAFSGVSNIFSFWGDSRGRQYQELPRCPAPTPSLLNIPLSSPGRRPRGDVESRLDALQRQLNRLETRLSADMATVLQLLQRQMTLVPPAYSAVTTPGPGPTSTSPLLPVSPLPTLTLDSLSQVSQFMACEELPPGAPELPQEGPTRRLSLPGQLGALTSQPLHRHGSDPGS
assay.endpoint: IC50

Query: Name the recorded IC50 of the item `CNC(=O)c1nnc(NC(=O)C2CC2)c2[nH]c(-c3ccc(N)cc3OC)cc12` in your answer.
Reply: > 30 µM

----------
For reference, IC50 measured on Tyrosine-protein kinase JAK1 (Homo sapiens, UniProt P23458):
Output spec: scalar in nM, unitless text.

compound	measurement.units	IC50
O=C(Nc1c[nH]nc1-c1nc2cc(CN3CCOCC3)ccc2[nH]1)NC1CC1 [AT-9283]	nM	60

In the following, a different compound is considered.
Query: Give the reported IC50 for this compound. c1nc2nc(Nc3ccc(N4CCOCC4)cc3)nc(NC3CCCCC3)c2[nH]1 [REVERSINE]
Reply: 350
